# tested-system: EF-Tu (6His-tagged EF-Tu, tufA) (Escherichia coli, UniProt P0CE47, E379A)
# assay-name: biochemical
measured-quantity: pKd
Answers are plain numbers, as −log10 of the molar value.

Query block: Kindly indicate its recorded pKd. Item: CCCn1nnnc1NC(=O)c1cccc(Cl)c1 [KKL-55]
Result block: 5.62

src = paper PMC11409059
